Reference for the values: PubChem BioAssay (NCI)

# key: entry, value: TGI
tested on: A498 renal; assay: NCI tumour cell line growth inhibition, 48 h
Field: numeric (µM). Do not append units.

Tested on A498 renal, the item O=C(O)C(C(=O)C(=O)C(C(=O)O)c1ccc(Cl)cc1)c1ccc(Cl)cc1 (stereo unspecified) showed TGI equal to 16.6

Tested on A498 renal, the item "COc1cccc2c1-c1c(OC)cccc1SS2" showed TGI equal to 27.4

Tested on A498 renal, the item "O=C(O)c1ccc([S-])cc1.[Au+].c1ccc(CN2[CH-]N(Cc3ccccc3)C(c3ccccc3)=C2c2ccccc2)cc1" showed TGI equal to 0.954

Tested on A498 renal, the item O=CC(Br)C(Br)c1ccccc1 (stereo unspecified) showed TGI equal to 29.5

Tested on A498 renal, the item CCCCCCCCC(O)C#CC(N)=O (stereo unspecified) showed TGI equal to 31

Tested on A498 renal, the item N#Cc1ccc(C2C3=C(CCCC3=O)OC3=C2C(=O)c2ccccc2C3=O)cc1 (stereo unspecified) showed TGI equal to 27

Tested on A498 renal, the item "COc1ccc2nc3cc([N+](=O)[O-])ccc3c(NCCCN(CCO)CCO)c2c1" showed TGI equal to 38.6
